Can you tell me pIC50 for the items I'm about to list?
experiment: Inhibition of Hedgehog signaling pathway in mouse C3H10T1/2 cells assessed as reduction in oxysterol-induced Gli1 mRNA expression after 24 hrs by q-PCR analysis; assay type: cell-based; conditions: C3H 10T1/2, 24 h
Answers are plain numbers, as −log10 of the molar value.

Some compounds with recorded pIC50:
Record summary for CC(C)CCC[C@@H](C)[C@H]1CC[C@H]2[C@@H](Nc3ccc(O)cc3)C[C@H](CCO)C[C@]12C : reported pIC50 = 5.57

Form: compound = CC[C@@H]1C[C@H](OC(=O)c2cccc(O)c2)[C@@H]2CC[C@H]([C@H](C)CCCC(C)C)[C@@]2(C)C1 ; pIC50 = 6.04

For the 3 compounds below, give their pIC50 values.
1. CC(C)CCC[C@@H](C)[C@H]1CC[C@H]2[C@@H](O)C[C@H](CCO)C[C@]12C
2. CC(C)CCC[C@@H](C)[C@H]1CC[C@H]2[C@@H](OC(=O)c3cccc(O)c3)C[C@H](CCO)C[C@]12C
3. C#CCCC(=O)OCC[C@H]1C[C@H](OC(=O)c2cccc(O)c2)[C@@H]2CC[C@H]([C@H](C)CCCC(C)C)[C@@]2(C)C1

[5.33, 5.70, 5.20]
